Target: T1, integrin αvβ6 (human, UniProt P06756)
T1 chain 1: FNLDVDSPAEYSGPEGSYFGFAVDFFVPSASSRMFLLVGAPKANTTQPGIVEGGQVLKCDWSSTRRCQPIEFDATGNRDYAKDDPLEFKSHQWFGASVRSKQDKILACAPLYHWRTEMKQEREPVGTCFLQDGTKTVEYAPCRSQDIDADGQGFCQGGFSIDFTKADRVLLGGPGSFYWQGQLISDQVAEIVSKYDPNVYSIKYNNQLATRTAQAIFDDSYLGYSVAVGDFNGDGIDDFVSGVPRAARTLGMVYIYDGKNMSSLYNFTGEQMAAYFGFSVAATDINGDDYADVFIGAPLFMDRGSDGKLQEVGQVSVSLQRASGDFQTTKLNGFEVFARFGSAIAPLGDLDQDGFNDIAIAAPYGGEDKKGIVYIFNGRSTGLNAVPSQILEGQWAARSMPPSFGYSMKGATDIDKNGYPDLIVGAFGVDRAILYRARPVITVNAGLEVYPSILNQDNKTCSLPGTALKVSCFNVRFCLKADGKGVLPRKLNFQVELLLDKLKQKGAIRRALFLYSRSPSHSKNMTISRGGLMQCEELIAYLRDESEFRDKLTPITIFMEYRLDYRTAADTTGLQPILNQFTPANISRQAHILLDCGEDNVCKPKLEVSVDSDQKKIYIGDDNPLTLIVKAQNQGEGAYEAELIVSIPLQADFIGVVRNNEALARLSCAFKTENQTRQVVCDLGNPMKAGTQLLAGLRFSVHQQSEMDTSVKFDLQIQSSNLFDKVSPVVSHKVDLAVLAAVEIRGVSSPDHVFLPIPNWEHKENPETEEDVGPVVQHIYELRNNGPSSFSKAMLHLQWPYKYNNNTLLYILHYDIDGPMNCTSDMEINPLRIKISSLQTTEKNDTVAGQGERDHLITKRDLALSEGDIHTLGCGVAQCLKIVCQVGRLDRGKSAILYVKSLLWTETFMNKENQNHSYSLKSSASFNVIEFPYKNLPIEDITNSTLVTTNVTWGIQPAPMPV
T1 chain 2: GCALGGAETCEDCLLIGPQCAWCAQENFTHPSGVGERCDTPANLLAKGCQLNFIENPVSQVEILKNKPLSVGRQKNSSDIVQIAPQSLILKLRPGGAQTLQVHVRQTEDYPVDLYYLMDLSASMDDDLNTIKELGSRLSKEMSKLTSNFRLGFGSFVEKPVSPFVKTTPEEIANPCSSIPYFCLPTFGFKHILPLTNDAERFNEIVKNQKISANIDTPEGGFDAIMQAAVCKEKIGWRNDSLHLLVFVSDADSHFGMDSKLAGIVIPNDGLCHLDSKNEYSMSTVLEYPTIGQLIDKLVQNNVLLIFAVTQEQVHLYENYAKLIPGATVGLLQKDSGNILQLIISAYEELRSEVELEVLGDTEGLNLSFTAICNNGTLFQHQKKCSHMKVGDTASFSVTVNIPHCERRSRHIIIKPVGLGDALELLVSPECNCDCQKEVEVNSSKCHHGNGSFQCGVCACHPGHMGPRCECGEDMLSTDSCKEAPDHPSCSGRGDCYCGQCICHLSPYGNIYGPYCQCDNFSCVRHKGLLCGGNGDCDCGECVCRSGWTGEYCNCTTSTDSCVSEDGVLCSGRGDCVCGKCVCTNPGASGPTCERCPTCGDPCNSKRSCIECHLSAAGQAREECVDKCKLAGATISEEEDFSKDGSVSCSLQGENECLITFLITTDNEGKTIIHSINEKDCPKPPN
Experiment: BLI
test.readout: pKd
The value called pKd is obtained by taking minus log10 of the concentration in mol/L.

Specify measured pKd for avb8_12 (LATI) (designed binder) TKCVVRFNFRGDLATIALKAVKDHLKKEGPHWNITTHNDDEVYLVVRGIHESDAKRIAKWVESTIPGISVETQCD .
8.95
